- test_name: NCI Yeast Anticancer Drug Screen. Data for the rad50 strain (AID 155);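 further: 0% = growth of vehicle-only cultures of the same strain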
- test_settings: S. cerevisiae rad50 strain growth inhibition; at 50.0 µM; stronger effect = higher value
This is part of a sample that, as a whole, favours compounds with a hit. Of some 79,000 tested, about 15% had one in any assay.
readout: growth inhibition (%)
Please respond with the number in % and leave the unit unwritten.

C=CCSc1ncnc2c1c(C#N)cn2C1OC(CO)C(O)C1O (stereo not drawn) = 22

Could you share which growth inhibition value was measured for Clc1cc(/C=C/c2ccccc2)c2ccccc2n1 ?
25.9

Could you share which growth inhibition value was measured for O=C(O)C1C=CCC2C(O)C=CC(=O)C12 (stereo not drawn) ?
-5.95

Could you share which growth inhibition value was measured for Nc1nc(Nc2ccccc2)nc(SCc2ccccc2)n1 ?
9.7

Could you share which growth inhibition value was measured for N#CCC(=O)N/N=C\C(O)C(O)C(O)C(O)CO (stereo not drawn) ?
0.1

Could you share which growth inhibition value was measured for Cc1ccc(N=C2SC(=NN(C)C)SC2=Nc2ccc(C)cc2)cc1 ?
18.9

* * *

# growth inhibition annotations
- test_name: NCI Yeast Anticancer Drug Screen. Data for the rad50 strain (AID 155);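 further: 0% = growth of vehicle-only cultures of the same strain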
- test_settings: S. cerevisiae rad50 strain growth inhibition; at 50.0 µM; stronger effect = higher value
This is part of a sample that, as a whole, favours compounds with a hit. Of some 79,000 tested, about 15% had one in any assay.
Please respond with the number in % and leave the unit unwritten.

Solved cases (8 shown):
CC(=O)OC1C(=O)OC(=O)C1OC(C)=O (stereo unspecified) = 9.6
COc1ccccc1NC(=S)N/N=C/c1cccc(C)n1 = 9.45
CC(=O)c1c(C)nc(SSc2nc(C)c(C(C)=O)c(-c3ccc(Cl)cc3)c2C#N)c(C#N)c1-c1ccc(Cl)cc1 = -30.8
O=S1(=O)CS(=O)(=O)OCCCCO1 = 10.2
O=c1oc2ccc3ccccc3c2c(-c2ccc(O)cc2)c1-c1ccccc1 = 98.7
C=CCNC(=O)NCCCC(NC(C)=O)C(=O)NCc1ccccc1 (stereo unspecified) = -20.9
Cc1ccc(S(=O)(=O)NN=C2C(C)CC(C(C)(C)C)CC2C)cc1 (stereo unspecified) = -24.8
O=C(CCn1ccnc1[N+](=O)[O-])NCCCn1ccnc1[N+](=O)[O-] = -24.1

Could you share which growth inhibition value was measured for CCOc1c(N=Nc2ccc(OC)cc2)c(C)nn1C(N)=S ?
-12.5

Could you share which growth inhibition value was measured for C[N+](C)(C)CC(=O)NN ?
10.1

Could you share which growth inhibition value was measured for O=C(O)C1Cc2c([nH]c3ccccc23)C(c2ccccc2)N1 (stereo unspecified) ?
1.3

* * *

- test_name: NCI Yeast Anticancer Drug Screen. Data for the bub3 strain (AID 167)
- test_settings: S. cerevisiae bub3 mutant strain, at 50.0 µM, stronger effect = higher value
The panel holds about 79,000 compounds, 15% with a hit somewhere; the sample as a whole holds those more often.
readout: growth inhibition (%)
Please respond with the number in % and leave the unit unwritten.

CC1CCC(C(C)C)C(NC(=O)c2cccnc2)C1 (stereo unspecified) = 14.4
CC[N+]1(C)CC2CCC1C2 (stereo unspecified) = 5.85
CN(/N=C1\C(=O)Nc2ccccc21)c1ccccc1 = 3.85
O=S(O)CCCCCSSSCCCCCS(=O)O = 9.05

Could you share which growth inhibition value was measured for CC(C)(CO)NCC(O)CS(=O)(=O)O (stereo unspecified) ?
4.25

Could you share which growth inhibition value was measured for Nc1cc2c(cn1)[nH]c1ccccc12 ?
5.6

Could you share which growth inhibition value was measured for CCN(CC)CCOC(=O)c1ccc(NC(=O)Nc2ccccc2[N+](=O)[O-])cc1 ?
15.6
